Biological target: HIV-1 protease (Human immunodeficiency virus type 1 group M subtype B, UniProt P03366)
Assay: inhibitory activity against HIV-1 protease (cleavage of substrate Suc-Ser-Gln-Asn-Tyr-Pro-Ile-Val-Gln, HPLC / PICO-TAG analysis)
Format: biochemical
Parameters: β-galactosidase (fusion partner in the expressed precursor); made in house; host or cells: E. coli K12 (UT481)
Conditions: same way as in 2) in Example 1; read-out: IC50
Where no end group is shown, it is not given here.
Below: a set of entries, each annotated with reported pIC50.
Scale: pIC50 equals -log10([C]), with [C] in mol/L.

record_sequence="AEAMSQVTN [Compound 6, AEAMSQVTN]" readout=pIC50 observed=5.22
record_sequence="AEAMSQVTL [Compound 11, AEAMSQVTL]" readout=pIC50 observed=4.28

Now examine the next entry.
## Task I'm curious: which pIC50 was measured for AEAMSQVTNSATIM [Compound 2, AEAMSQVTNSATIM] tested on HIV-1 protease (Human immunodeficiency virus type 1 group M subtype B, UniProt P03366)?
## Result 4.66
